We begin with a simple list: items and their reported TGI.
# System: RXF 393 renal
# Test Description: NCI tumour cell line growth inhibition, 48 h
Property Label: TGI

Compound	Experimental Value
Nc1nc(Nc2ccc(Cl)c(Cl)c2)nc2nc[nH]c12	20.1 µM
CC(C)Oc1c(C2(c3ccccc3)SCCCS2)c(=O)c1=O	> 100 µM
COC(=O)CCSC(=O)Nc1ccc(N=Nc2ccccc2)cc1	> 100 µM
O=Cc1c[nH]c2c(=O)[nH]cnc12	> 100 µM
Nc1nc2c(N)cc(C(F)(F)F)cc2nc1-c1ccccc1	> 100 µM
COC1=C(N)C(=O)c2nc(-c3nc(C(=O)O)c(C)c(-c4ccc(OC)c(OC)c4O)c3N)ccc2C1=O	15 nM [middle of 4 runs]
O=NN1C(c2ccccc2)CNC(=O)CC1c1ccccc1 (stereo unspecified)	81.1 µM
O=C(NCCN1CCCCC1)c1ccc(Br)cc1	> 100 µM
CC1(C)CCN2C(=O)C34CCCC3CC21S4 (stereo unspecified)	> 100 µM
O=C1C(Cl)N(c2c(Cl)cccc2Cl)C1c1c[nH]c2ccccc12 (stereo unspecified)	> 100 µM
COc1ccc2c(c1)OC(N)=C(C#N)C2c1cc(OC)c(OC)c(OC)c1 (stereo unspecified)	73.6 µM

----------
# System: HOP-92 NSCLC
# Test Description: NCI tumour cell line growth inhibition, 48 h
We begin with a simple list: items and their reported TGI.

Compound	TGI
CN1CCN(CC(=O)N(C)c2ccc(N=C(c3ccccc3)c3c(O)[nH]c4ccc(C#N)cc34)cc2)CC1	20.8 µM
Oc1ccc(Br)cc1C=Nc1cccc(C(F)(F)F)c1	> 100 µM
CO/C(N)=C(\C#N)N=Cc1ccc2ccccc2c1	> 100 µM
COC(=O)c1ccc2c(c1)CC1(C2)Cc2cc3c(cc2C1)CCC3	> 100 µM
COC(=O)CCSC(=O)Nc1ccc(N=Nc2ccccc2)cc1	> 100 µM
C#CC[C@@H]1C(=O)N(Cc2ccc(OC)cc2)[C@@H](C(C)C)C(=O)N1Cc1ccc(OC)cc1	> 100 µM
CN(C)c1ccc(/C=C\c2ccnc3ccccc23)cc1	60.4 µM
O=C(NN1C(=O)C(Cl)C1c1ccccc1O)c1ccccc1O (stereo not given)	> 100 µM
CCOC(=O)CSc1cc(Cl)c(C)cc1S(=O)(=O)/N=C(/N=C/c1ccc([N+](=O)[O-])s1)NNC	54.6 µM
O=C(O)C1=C/C(=C(/c2ccccc2)c2cc(C(=O)O)c(O)c3ccccc23)c2ccccc2C1=O	> 100 µM

----------
# Tested on: SNB-75 CNS
# Test Description: NCI tumour cell line growth inhibition, 48 h

Molecule	Qualifying Sign	TGI / µM
Cc1cc(=O)oc2ccc(OC/C=C3\CCC(=O)O3)cc12	=	12.3
COc1cc[c]([Sn]([c]2ccc(OC)cc2)([c]2ccc(OC)cc2)[c]2ccc(OC)cc2)cc1	>	100
CCOC(=O)c1c(-c2ccccc2)[n+](=O)c2cc(Cl)c(Cl)cc2n1[O-]	=	30.2
CCc1n[nH]c(=O)n1CCCCCCCCn1c(CC)n[nH]c1=O	>	100
[N-]=[N+]=Nc1ccccc1-c1ccccc1[N+](=O)[O-]	>	100
CC(=O)Nc1ccc(C(=O)CCl)cc1	=	16
COC(=O)C(=O)Cc1nc2ccccc2s1	>	100
CCOCC1(COCC)CCC(c2[nH]ncc2CN(C)CCNC)CC1	>	100
CC(C)OC(=O)c1ccc(NCc2cc(O)ccc2O)cc1	=	18.6
CCCn1c2c(c3ccccc3c1=O)C(=O)c1ccccc1-2	>	100
N#CCCn1[nH]c(=O)c(Cl)c(Cl)c1=O	=	26.7
C[C@H]1CC[P+](Cc2ccccc2)(c2ccccc2)C1 (stereo partly drawn)	>	100
Cc1ccc(CNc2ccc(Br)cc2)cc1	>	100
CCS(=O)C(=O)N(O)c1ccc(Cl)cc1 (stereo not drawn)	>	100
O=C1NC(=NCc2ccccc2Cl)S/C1=C\c1ccc2ncccc2c1	>	21.8
CC(C)=CCc1cc2c(cc1O)C1=C(C(=O)C3=C(C1=O)S(=O)(=O)CCN3)C(C=C(C)C)O2 (stereo not drawn)	=	3.72
Cc1c(C)c2c(c(N)c1C#N)C(=O)N(O)C2=O	>	100
CNC(=O)c1n[nH]n(C2CCCCC2)c1=S	>	100
CSc1ccc(C2=C(c3ccccc3)C(=O)OC2)cc1	>	100
O=C1N/C(=N\N=C\c2ccccc2)C(c2ccccc2)O1 (stereo not drawn)	=	0.0124
Cn1cc(/C=C\[N+](=O)[O-])c2ccccc21	=	75.8
C=C1C(=O)O[C@H]2[C@H]1CC/C(COC(=O)c1cc(OC)c(OC)c(OC)c1)=C\CC[C@@]1(C)O[C@@H]21	=	21.6
COc1cc2cc(Oc3ccc(NC(=O)Nc4cc(C(F)(F)F)cc(C(F)(F)F)c4)cc3)c(C)nc2cc1OCCN1CCOCC1	=	4.48
